The measured values listed here are drawn from the supplement of paper PMC12764529.

# MEASUREMENT_NOTES: folding stability dG unfold from trypsin proteolysis; higher = more stable
QUANTITY_KIND: folding stability dG unfold (kcal/mol)
Give the number; kcal/mol is assumed, so skip it.

Sample answers from the record:
>>> df
                             query_sequence  quantitative_readout
0  SAGGSKTVTLTVTVEVNGKTFTVTVTLTYDEETNKLTITVEISAKSEEERERARELVEKLLKELLSSAGGSA [r2_259_TrROS_Hall]                  3.83
1  SAGGSAGGSAGGLPPGAKVKVEIEISYDDPFSGPTNEYNSFPVELNFEPPEPIPTDPRLNSAGGSAGGSAGG [r7_522_TrMRF]                -0.683
2  SAGGGSMPASITTEVTETTTPDATVTKSTVYYPDTGKWLEETTTTGPTTTITTTKFPDGSTTVTTAASAGGS [r16_657_JUSTAS]                 0.275

response.value for SAGGSAGGSAGSMSVSVTKLPNGDYVVTTTTSETSTSTTGSTPVTTTTTTTTVTTLPSSSSAGGSAGGSAGG [r17_432_JUSTAS] (field: folding stability dG unfold) = 2.21
